The entries below are paired with their reported pKd.
# measurement_target: HLA-A*30:02
# experimental_protocol: IEDB peptide-MHC binding, purified MHC/competitive/radioactivity; filed as Kd, often an IC50 or EC50 that approximates it; bounds were set here for any values at or beyond the usual limits of such assays
# protocol_conditions: source organism: SARS coronavirus Tor2
pKd: −log10 of the molar value.
metric_name: pKd

sequence_code: YFTNDVSFL
measurement_target: HLA-A*30:02
comparator: ≤
test_value: 4.01

sequence_code: GYVTHGFNL
measurement_target: HLA-A*30:02
comparator: ≤
test_value: 4.10

sequence_code: ADAGFMKQY
measurement_target: HLA-A*30:02
comparator: ≤
test_value: 4.34

sequence_code: PYRVVVLSF
measurement_target: HLA-A*30:02
comparator: ≤
test_value: 4.03

sequence_code: EFLTRNPAW
measurement_target: HLA-A*30:02
comparator: ≤
test_value: 4.00

sequence_code: CFANKHAGF
measurement_target: HLA-A*30:02
comparator: =
test_value: 5.18

sequence_code: GYTMHANYI
measurement_target: HLA-A*30:02
comparator: ≤
test_value: 4.10

sequence_code: YIAVNDKALY
measurement_target: HLA-A*30:02
comparator: =
test_value: 6.85

sequence_code: VMPLSAPTL
measurement_target: HLA-A*30:02
comparator: ≤
test_value: 4.12

sequence_code: LYDANYFVCW
measurement_target: HLA-A*30:02
comparator: =
test_value: 4.87

sequence_code: LFADINGKL
measurement_target: HLA-A*30:02
comparator: =
test_value: 5.36

sequence_code: MFSPIVPFW
measurement_target: HLA-A*30:02
comparator: ≤
test_value: 4.52

sequence_code: ATSRTLSYY
measurement_target: HLA-A*30:02
comparator: =
test_value: 8.99

sequence_code: LVAEMDGIQY
measurement_target: HLA-A*30:02
comparator: =
test_value: 6.99

sequence_code: GTDLEGKFY
measurement_target: HLA-A*30:02
comparator: =
test_value: 5.86

---

# measurement_target: HLA-B*53:01
# experimental_protocol: IEDB peptide-MHC binding, purified MHC/competitive/radioactivity; filed as Kd, often an IC50 or EC50 that approximates it; bounds were set here for any values at or beyond the usual limits of such assays
# protocol_conditions: source organism: Vaccinia virus WR
pKd: −log10 of the molar value.
Kind request: treat 7 as inclusive, so pKd at 7 or higher is 1, anything lower is -1.

sequence_code: FPGDKTSYWV
label: 1
//
sequence_code: DPSERVFKKI
label: -1
//
sequence_code: RLYDYFTRV
label: -1
//
sequence_code: DPMVIENGI
label: -1
//
sequence_code: NPLFHGGEPI
label: -1
//
sequence_code: KTSTLIFFV
label: -1
//
sequence_code: YPEYNRAVKF
label: 1
//
sequence_code: MPTYKHLIMF
label: 1

---

# measurement_target: HLA-A*02:02
# experimental_protocol: IEDB peptide-MHC binding, purified MHC/competitive/radioactivity; filed as Kd, often an IC50 or EC50 that approximates it; bounds were set here for any values at or beyond the usual limits of such assays
# protocol_conditions: source organism: Vaccinia virus WR
metric_name: Kd (µM)

sequence_code: EAAAATCALV
measurement_target: HLA-A*02:02
test_value: 1.81

sequence_code: IIELPYVGDT
measurement_target: HLA-A*02:02
test_value: 13.7

sequence_code: ETIQKDINIT
measurement_target: HLA-A*02:02
test_value: 0.354

sequence_code: IVPDIKLDA
measurement_target: HLA-A*02:02
test_value: 6.39

---

# measurement_target: HLA-A*33:01
# experimental_protocol: IEDB peptide-MHC binding, purified MHC/competitive/radioactivity; filed as Kd, often an IC50 or EC50 that approximates it; bounds were set here for any values at or beyond the usual limits of such assays
# protocol_conditions: source organism: SARS coronavirus Tor2
pKd: −log10 of the molar value.

sequence_code: LFQLCTFTK
comparator: =
pKd: 6.06
//
sequence_code: TVVIGTSKFY
comparator: =
pKd: 5.91
//
sequence_code: ATSRTLSYY
comparator: ≤
pKd: 4.11
//
sequence_code: SLIDLQELGK
comparator: =
pKd: 5.85
//
sequence_code: VTTIMFLAR
comparator: =
pKd: 6.78
//
sequence_code: RQVVNVITTK
comparator: ≤
pKd: 4.40
//
sequence_code: VTLAILTALR
comparator: =
pKd: 6.51
//
sequence_code: WFFNNYLRK
comparator: =
pKd: 6.05

---

# measurement_target: HLA-A*11:01
# experimental_protocol: IEDB peptide-MHC binding, purified MHC/competitive/radioactivity; filed as Kd, often an IC50 or EC50 that approximates it; bounds were set here for any values at or beyond the usual limits of such assays
# protocol_conditions: source organism: Vaccinia virus WR
pKd: −log10 of the molar value.
The entries below are paired with their reported pKd.
metric_name: pKd

sequence_code: ISRTRLYDY
test_value: 5.85
--
sequence_code: DTIESAKTK
test_value: 6.17
--
sequence_code: DILGVLTIK
test_value: 5.95
--
sequence_code: IVHSYLKNY
test_value: 5.91

---

The entries below are paired with their reported pKd.
# measurement_target: HLA-A*02:02
# experimental_protocol: IEDB peptide-MHC binding, purified MHC/competitive/radioactivity; filed as Kd, often an IC50 or EC50 that approximates it; bounds were set here for any values at or beyond the usual limits of such assays
# protocol_conditions: source organism: Vaccinia virus WR
pKd: −log10 of the molar value.

sequence_code: IAEYIAGLKI
comparator: ≤
pKd: 4.54

sequence_code: KVTGSYNLV
comparator: =
pKd: 7.18

sequence_code: IASILSLET
comparator: =
pKd: 5.44

sequence_code: NQLDSSNKSM
comparator: =
pKd: 5.75

sequence_code: DIPTFNSLNT
comparator: =
pKd: 5.69

sequence_code: KTVKNVDII
comparator: =
pKd: 6.22

---

# measurement_target: HLA-A*33:01
# experimental_protocol: IEDB peptide-MHC binding, purified MHC/competitive/radioactivity; filed as Kd, often an IC50 or EC50 that approximates it; bounds were set here for any values at or beyond the usual limits of such assays
# protocol_conditions: source organism: Vaccinia virus WR
pKd: −log10 of the molar value.

sequence_code: SLENLDPDNK
pKd: ≤ 4.65
--
sequence_code: RLYDYFTRV
pKd: ≤ 4.11
--
sequence_code: QIFNEDTSY
pKd: ≤ 4.11

---

# measurement_target: HLA-B*18:01
# experimental_protocol: IEDB peptide-MHC binding, purified MHC/competitive/radioactivity; filed as Kd, often an IC50 or EC50 that approximates it; bounds were set here for any values at or beyond the usual limits of such assays
# protocol_conditions: source organism: SARS coronavirus Tor2
The entries below are paired with their reported Kd.

sequence_code: AESHMDADLA
measurement_target: HLA-B*18:01
Kd: ≥ 48 µM
--
sequence_code: GEVLSLDKL
measurement_target: HLA-B*18:01
Kd: ≥ 77.5 µM
--
sequence_code: SDRVVFVLWA
measurement_target: HLA-B*18:01
Kd: ≥ 26.4 µM
--
sequence_code: LEGSISYSEL
measurement_target: HLA-B*18:01
Kd: ≥ 45 µM

---

# measurement_target: HLA-A*29:02
# experimental_protocol: IEDB peptide-MHC binding, purified MHC/competitive/radioactivity; filed as Kd, often an IC50 or EC50 that approximates it; bounds were set here for any values at or beyond the usual limits of such assays
# protocol_conditions: source organism: Mammarenavirus guanaritoense
pKd: −log10 of the molar value.
The entries below are paired with their reported pKd.

sequence_code: YSDPKRFFL
pKd: ≤ 4.67
//
sequence_code: GEKSRCYSLY
pKd: ≤ 5.00
//
sequence_code: VFQAKSAFV
pKd: ≤ 4.10

---

# measurement_target: HLA-A*01:01
# experimental_protocol: IEDB peptide-MHC binding, purified MHC/competitive/radioactivity; filed as Kd, often an IC50 or EC50 that approximates it; bounds were set here for any values at or beyond the usual limits of such assays
# protocol_conditions: source organism: Mammarenavirus guanaritoense
The entries below are paired with their reported Kd.

sequence_code: VFQAKSAFV
Kd: ≥ 31.4 µM
//
sequence_code: IRHLFGNYI
Kd: ≥ 22.2 µM
//
sequence_code: GEKSRCYSLY
Kd: ≥ 42.3 µM

---

# measurement_target: HLA-A*11:01
# experimental_protocol: IEDB peptide-MHC binding, purified MHC/competitive/radioactivity; filed as Kd, often an IC50 or EC50 that approximates it; bounds were set here for any values at or beyond the usual limits of such assays
# protocol_conditions: source organism: Vaccinia virus WR
pKd: −log10 of the molar value.
The entries below are paired with their reported pKd.
metric_name: pKd

sequence_code: SVLCVKKFY
comparator: =
test_value: 6.43

sequence_code: ASMGFKVTTR
comparator: =
test_value: 9.76

sequence_code: PSIFLIITK
comparator: =
test_value: 7.44

sequence_code: AAIDRQVSVK
comparator: =
test_value: 7.97

sequence_code: PVLKAMHDKK
comparator: ≤
test_value: 4.61

sequence_code: MLTNAISSR
comparator: =
test_value: 5.39

sequence_code: VSLSAYIIR
comparator: =
test_value: 5.95

sequence_code: TSSFREKSR
comparator: =
test_value: 5.24

sequence_code: AALDGTFQR
comparator: =
test_value: 8.58

sequence_code: FVSLVKKNKK
comparator: =
test_value: 6.63

sequence_code: VINAPIKEFK
comparator: =
test_value: 8.88

sequence_code: LSYIYSEIK
comparator: =
test_value: 7.56

sequence_code: HTCMSECVR
comparator: =
test_value: 7.17

sequence_code: NIAEYIAGLK
comparator: =
test_value: 6.29

sequence_code: KSIHLTKTDK
comparator: =
test_value: 7.70
